# Tested on: E. coli ATCC 11229
# procedure-details: microbe, parasite or virus in culture
# experimental-setup: ATCC 11229, 18 h
Where a SMILES comes first, the peptide text is derived from it.
Examples of molecules with documented minimum inhibitory concentration (MIC) E. coli ATCC 11229 follow.
Please respond with the number in µg/mL and leave the unit unwritten.

Below: 3 molecules and their reported minimum inhibitory concentration (MIC) E. coli ATCC 11229.
>  <molecule>
CC[C@H](C)[C@@H]1NC(=O)[C@H](C(C)C)NC(=O)[C@H](CC(C)C)NC(=O)[C@@H]2CCCN2C1=O [c-PLVI, cyclo-(pro-leu-val-ile)] (cyclo(PLVI))

>  <experimental-target>
E. coli ATCC 11229

>  <unit-spec>
µg/mL

>  <experimental-result>
125

$$$$
>  <molecule>
CC[C@H](C)[C@@H]1NC(=O)[C@H](Cc2ccccc2)NC(=O)[C@H](CC(C)C)NC(=O)[C@@H]2CCCN2C1=O [c-PLFI, cyclo-(pro-leu-phe-ile)] (cyclo(PLFI))

>  <experimental-target>
E. coli ATCC 11229

>  <unit-spec>
µg/mL

>  <experimental-result>
125

$$$$
>  <molecule>
CC[C@H](C)[C@@H]1NC(=O)[C@H](Cc2ccccc2)NC(=O)[C@H](CCCCN)NC(=O)[C@@H]2CCCN2C1=O [c-PKFI, cyclo-(pro-lys-phe-ile)] (cyclo(PKFI))

>  <experimental-target>
E. coli ATCC 11229

>  <unit-spec>
µg/mL

>  <experimental-result>
31.25

$$$$

Measured minimum inhibitory concentration (MIC) E. coli ATCC 11229, CC[C@H](C)[C@@H]1NC(=O)[C@H](C)NC(=O)[C@H](CC(C)C)NC(=O)[C@@H]2CCCN2C1=O [c-PLAI, cyclo(pro-leu-ala-ile)] (cyclo(PLAI)) : 250

Measured minimum inhibitory concentration (MIC) E. coli ATCC 11229, CC[C@H](C)[C@H](NC(=O)[C@@H](NC(=O)[C@H](CC(C)C)NC(=O)[C@@H]1CCCN1)C(C)C)C(=O)O [PLVI] (H-PLVI-OH) : 500

* * *

Examples of compounds with documented minimum inhibitory concentration (MIC) K. pneumonia ATCC 2357 follow.
# Test system: K. pneumonia ATCC 2357
# procedure-details: microbe, parasite or virus in culture
# experimental-setup: ATCC 2357, 18 h
Where a SMILES comes first, the peptide text is derived from it.
Please respond with the number in µg/mL and leave the unit unwritten.

>  <compound>
CC[C@H](C)[C@@H]1NC(=O)[C@@H]2CCCN2C(=O)[C@H](CC(C)C)NC(=O)[C@@H]2CCCN2C1=O [c-PLPI, cyclo(pro-leu-pro-ile)] (cyclo(PLPI))

>  <experimental-result>
250

$$$$

Log: K. pneumonia ATCC 2357, compound CC[C@H](C)[C@H](NC(=O)[C@@H](NC(=O)[C@H](CC(C)C)NC(=O)[C@@H]1CCCN1)C(C)C)C(=O)O [PLVI] (H-PLVI-OH) , minimum inhibitory concentration (MIC) K. pneumonia ATCC 2357 = 500

* * *

Examples of compounds with documented minimum inhibitory concentration (MIC) E. coli ATCC 11229 follow.
# System: E. coli ATCC 11229
# procedure-details: microbe, parasite or virus in culture
# experimental-setup: ATCC 11229, 18 h
Where a SMILES comes first, the peptide text is derived from it.
Please respond with the number in µg/mL and leave the unit unwritten.

Below: 2 compounds and their reported minimum inhibitory concentration (MIC) E. coli ATCC 11229.
>  <compound>
CC[C@H](C)[C@@H]1NC(=O)[C@H](C)NC(=O)[C@H](CCCCN)NC(=O)[C@@H]2CCCN2C1=O [c-PKAI, cyclo-(pro-lys-ala-ile)] (cyclo(PKAI))

>  <unit-spec>
µg/mL

>  <experimental-result>
62.50

$$$$
>  <compound>
CC[C@H](C)[C@H](NC(=O)[C@@H]1CCCN1C(=O)[C@H](CC(C)C)NC(=O)[C@@H]1CCCN1)C(=O)O [PLPI] (H-PLPI-OH)

>  <unit-spec>
µg/mL

>  <experimental-result>
500

$$$$

Continue with the compound presented below.
Measured minimum inhibitory concentration (MIC) E. coli ATCC 11229, CC[C@H](C)[C@H](NC(=O)[C@H](Cc1ccccc1)NC(=O)[C@H](CCCCN)NC(=O)[C@@H]1CCCN1)C(=O)O [PKFI] (H-PKFI-OH) : 250
